pKi: −log10 of the molar value.
Here we gather pKi data for Coagulation factor X (Homo sapiens, UniProt P00742) reported by several publications.
Threshold rule: pKi greater than or equal to 6 is y; below that, n.

{"Compound": "CCOc1cc(OC(C)C)c(F)c(C(Nc2ccc(C(=N)N)cc2)c2nc(-c3ccc(C)cc3)c[nH]2)c1 (stereo not drawn)", "Class": "y"}
{"Compound": "CC1(C)C[C@@H](C(=O)NCc2ccc(C(=N)N)cc2)n2c1c(Cl)nc(NC1CCCC1)c2=O", "Class": "n"}
{"Compound": "N=C(N)c1ccc2[nH]cc(C(CC3CC3)C(=O)Nc3ccc(-n4cnc5ccccc54)cc3)c2c1 (stereo not drawn)", "Class": "y"}
{"Compound": "Nc1noc2ccc(-n3nc(C(F)(F)F)cc3C(=O)N3CCCCc4cc(-c5ccccc5S(N)(=O)=O)ccc43)cc12", "Class": "n"}
{"Compound": "CN(C)C(=N)c1ccc(/C=C2\\CCCC/C(=C\\c3ccc(C(=N)N(C)C)cc3)C2=O)cc1", "Class": "n"}
{"Compound": "N=C(N)c1cccc(Cn2c(C(=O)NCCc3ccc(Br)cc3)cc3c(O)cccc32)c1", "Class": "n"}
{"Compound": "C[C@@H](C(=O)N1CCOCC1)N1CC[C@H](NS(=O)(=O)c2ccc(/C=C/Cl)cc2)C1=O", "Class": "y"}
{"Compound": "COC(=O)c1cc(C(C)NC(=O)CNC(=O)Nc2ccc(C(=N)N)cc2)ccc1OCc1ccccc1 (stereo not drawn)", "Class": "n"}
